experiment: Toxicity in iv dosed Swiss-Webster mouse; type: organism-based; conditions: in vivo
Reported Endpoint: LD50 (mg/kg)

CO[C@H]1[C@@H]2C[C@@H]3[C@H]1[C@](O)(C[C@@H]2OC)[C@]1(O)C2NC[C@]4(COC(=O)c5ccccc5N5C(=O)CC(C)C5=O)CC[C@H](OC)[C@@]23[C@@H]4[C@@H]1OC (stereo not given in full) : 100
CO[C@H]1[C@@H]2C[C@]3(O)[C@H]1[C@@]1(C[C@@H]2OC)OCO[C@]12C1NC[C@]4(C)CC[C@H](OC)[C@@]13[C@@H]4[C@@H]2OC(C)=O : 210
CCN1C[C@]2(C)CC[C@H](OC)[C@@]34C1[C@]1(OCO[C@@]15C[C@H](OC)[C@H]1C[C@]3(O)[C@@H]5[C@H]1O)[C@@H](OC(C)=O)[C@H]24 : 283
CCN1C[C@]2(COC(=O)c3ccccc3N3C(=O)C[C@H](C)C3=O)CC[C@H](OC)[C@@]34C1[C@@]1(OCO[C@@]15C[C@H](OC)[C@H]1C[C@@H]3[C@@H]5[C@H]1OC)[C@@H](OC)[C@H]24 : 9.2
CCN1C[C@]2(COC(=O)c3ccccc3N3C(=O)C[C@H](C)C3=O)CC[C@H](OC)[C@]34C5C[C@@H]6[C@@H](OC)C[C@@](O)(C5[C@H]6OC(C)=O)[C@](O)(C13)[C@@H](OC)C24 (stereo not given in full) : 2.7

====

Some compounds, each annotated with its measured LD50.
experiment: Toxicity in iv dosed Swiss-Webster mouse; type: organism-based; conditions: in vivo
Reported Endpoint: LD50 (mg/kg)

CCN1C[C@]2(C)CC[C@H](OC)[C@@]34C1[C@]1(OCO[C@@]15C[C@H](OC)[C@H]1C[C@]3(O)[C@@H]5[C@H]1OC)[C@@H](OC(C)=O)[C@H]24 [DELTALINE] : 200
CCN1C[C@]2(CO)CC[C@H](OC)[C@@]34[C@@H]5C[C@H]6[C@H](OC)[C@@H]5[C@](O)(C[C@@H]6OC)[C@](O)([C@@H](OC)[C@H]23)[C@@H]14 [LYCOCTONINE] : 444
CCN1C[C@]2(COC(=O)c3ccccc3N3C(=O)C[C@H](C)C3=O)CC[C@H](OC)[C@@]34[C@@H]5C[C@H]6[C@H](OC)[C@@H]5[C@](O)(C[C@@H]6OC)[C@](O)([C@@H](OC)[C@H]23)[C@@H]14 [METHYLLYCACONITINE] : 7.5
CCN1C[C@]2(COC(=O)c3ccccc3N)CC[C@H](OC)[C@]34C1[C@](O)([C@@H](OC)[C@H]23)[C@@]1(O)C[C@H](OC)[C@H]2C[C@@H]4[C@@H]1[C@H]2OC [ANTHRANOYLLYCOCTONINE] : 20.8
